The reported numbers originate from the supplement of paper PMC10567573.

B1: CPOX (parent)
chain: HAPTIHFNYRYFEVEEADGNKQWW

# Variants of: B1
# experiment_notes: protein stability index of a GFP-peptide fusion (GPS, HEK-293T) (PSI 1-6); higher = more stable;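 note: lentivirally expressed fusions sorted by FACS into six bins by GFP to DsRed ratio, PSI derived from sequencing read proportions per bin multiplied by bin number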
# assay_context: c terminus: a fixed tail appended
quantity_measured: protein stability index

In: So what does the record say about protein stability index for N20D ?
Out: 2.12
